# EXPERIMENT DESCRIPTION: caspase 3/7 activation in MEF A1-2A-BIM cells, primary screen, A1 inhibitor project, cell-based, luminescence, HTS (AID 2462)
# APPLIED CONDITIONS: Caspase-Glo 3/7 luminescence, 3 h, percent of clofoctol response, vehicle zero, concentration not given here
Hit rate of the full screen: of about 330,000 compounds, about 220 (0.067%) were called active.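 How the source made its calls: active means over half of replicate activation scores above 10%, or exactly half above 10 with the replicate mean above 10; inconclusive means replicate mean below 10 yet half the replicates above 10; inactive means over half of replicates below 10.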 This excerpt belongs to a sample that is enriched for actives.
Response enum: active, inactive

CCOC(=O)c1cnc(-n2nc(C)cc2C)nc1NNc1cc(C)nc(-c2ccccc2)n1 :: inactive
CN(C(=O)CSc1nnc(N)s1)c1c(N)n(Cc2ccccc2)c(=O)[nH]c1=O :: inactive
O=[N+]([O-])/C=C/c1ccc2c(ccn2Cc2ccccc2)c1 :: active
Cc1cc(C)nc(NNC2=CC(=O)CC(C)(C)C2)n1 :: inactive
O=C(NNS(=O)(=O)c1c(F)cc(F)c(Cl)c1F)C12CC3CC(CC(C3)C1)C2 :: inactive

Ask: Dear all, I need the recorded test outcome for COc1ccc(CNC(=O)c2cc(C(=O)C3CC3)c[nH]2)cc1 , thank you.
Reply: inactive

Ask: Identify the outcome logged in this assay for the molecule shown: CC(NCC(=O)Nc1ccccc1C(=O)NC1CC1)c1ccccc1Cl (centres undefined)
Reply: inactive

Ask: Tell me the assay call for Cc1ccc(-n2c(SCC(=O)Nc3ncc(Cl)cc3Cl)nc3ccccc32)cc1 please.
Reply: inactive

Ask: For CCS(=O)(=O)c1cc([N+](=O)[O-])c(Sc2ccccc2N)s1 , what call appears in the results of this test?
Reply: inactive

Ask: Hey, what did the test say about Nc1ccccc1SC(C[N+](=O)[O-])c1ccccc1 (centres undefined) ?
Reply: active

Ask: For O=C(C1CCCO1)N1CCN(C(=S)NC2CC2)CC1 (centres undefined) , which call appears in the assay record?
Reply: inactive

Ask: Hi team, can someone confirm the assay call for Cc1cc(NC(=O)CSc2nnc(-c3ccco3)n2N)no1 ?
Reply: inactive

Ask: # lookup: test call for C=CCOc1c(CNn2cn[nH]c2=S)cccc1OC
Reply: inactive

Ask: Hey, what did the test say about O=S(=O)(c1ccccc1)N(Cc1cccc(F)c1)c1ccccc1 ?
Reply: inactive

Ask: Per the assay record, what outcome was assigned to COC(=O)Cn1cc(/C=C/[N+](=O)[O-])c2ccccc21 ?
Reply: inactive

Ask: What did this assay record as the result for CSc1nnnn1-c1c(C)cc(C)cc1C ?
Reply: inactive

Ask: Lab log entry: Cc1cc(NC(=O)CSc2nc3ccccc3n2CC(C)C)no1 — outcome as called in the assay?
Reply: inactive

Ask: Any idea what this test logged for CCOC(=O)CC1COCCN1C(=O)c1cc(COc2ccc(F)c(F)c2)on1 (centres undefined) ?
Reply: inactive

Ask: Entry CCOC(=O)c1sc(N)c(C#N)c1COC(=O)C1=COCCO1 : call = ?
Reply: inactive

Ask: Tell me the recorded outcome of this test for COc1ccc(S(=O)(=O)N(C)C[C@H]2Oc3ccc(NS(=O)(=O)c4cccs4)cc3CC(=O)N([C@H](C)CO)C[C@H]2C)cc1 .
Reply: inactive

Ask: Field: outcome | Entry: CNC(=O)COc1ccc(S(=O)(=O)Nc2ccccc2)cc1
Reply: inactive

Ask: Lab log entry: COC(=O)c1ccc(/C=C/c2c(-c3ccc(OC)cc3)sc3ccccc23)cc1 — outcome as called in the assay?
Reply: inactive

Ask: Assay result, entry O=C(Cn1ccc2cc(S(=O)(=O)N3CCCC3)ccc21)NCc1ccccc1 — outcome?
Reply: inactive

Ask: Please let me know the test result on file for CCCCc1ccc(NC(=S)N2CCCC(CO)C2)cc1 (centres undefined) .
Reply: inactive

Ask: Which outcome was assigned to O=C1CCC(C(=O)N2CCCCO2)CN1Cc1cccc(C(F)(F)F)c1 (centres undefined) in this test?
Reply: inactive

Ask: Call for entry NC(=O)C1CCCN(CC(=O)N2CCN(c3ccccc3)CC2)C1 (centres undefined) :
Reply: inactive

Ask: Hi, sorry to bother you, what did the test record for COCCCNC(=O)C1CCN(c2ccc(N3CCOCC3)nn2)CC1 ?
Reply: inactive

Ask: Hi, sorry to bother you, what did the test record for COc1cc(-c2nnc(NC(=O)C3=COCCO3)o2)cc(OC)c1OC ?
Reply: inactive

Ask: What is the recorded call for this molecule in the test? CC1CCCN(C(C(=O)Nc2ccc(C(C)C)cc2)c2ccc3c(c2)OCO3)C1 (centres undefined)
Reply: inactive

Ask: Please let me know the test result on file for Cc1ccc(-n2ncc3c2CC(C)(C)CC3NC(=O)CCc2cnn(C)c2)cc1 (centres undefined) .
Reply: inactive

Ask: Field: outcome | Entry: COc1ccc(-c2n[nH]c3c2CN(C(=O)c2ccc(F)cc2)CC3)cc1
Reply: inactive

Ask: Query: recorded result category for Cc1[nH]n(-c2ccccc2)c(=O)c1CCOC(=O)c1ccc(C(F)(F)F)cc1 in this test
Reply: inactive
